For each of the molecules below, state its IC50.
# SYSTEM NAME: human GluN2B (Homo sapiens, UniProt Q05586+Q13224)
# Construct: expressed in transfected cells; host or cells: HEK cells
# Sequence (Q13224 27-1484, other chains not shown): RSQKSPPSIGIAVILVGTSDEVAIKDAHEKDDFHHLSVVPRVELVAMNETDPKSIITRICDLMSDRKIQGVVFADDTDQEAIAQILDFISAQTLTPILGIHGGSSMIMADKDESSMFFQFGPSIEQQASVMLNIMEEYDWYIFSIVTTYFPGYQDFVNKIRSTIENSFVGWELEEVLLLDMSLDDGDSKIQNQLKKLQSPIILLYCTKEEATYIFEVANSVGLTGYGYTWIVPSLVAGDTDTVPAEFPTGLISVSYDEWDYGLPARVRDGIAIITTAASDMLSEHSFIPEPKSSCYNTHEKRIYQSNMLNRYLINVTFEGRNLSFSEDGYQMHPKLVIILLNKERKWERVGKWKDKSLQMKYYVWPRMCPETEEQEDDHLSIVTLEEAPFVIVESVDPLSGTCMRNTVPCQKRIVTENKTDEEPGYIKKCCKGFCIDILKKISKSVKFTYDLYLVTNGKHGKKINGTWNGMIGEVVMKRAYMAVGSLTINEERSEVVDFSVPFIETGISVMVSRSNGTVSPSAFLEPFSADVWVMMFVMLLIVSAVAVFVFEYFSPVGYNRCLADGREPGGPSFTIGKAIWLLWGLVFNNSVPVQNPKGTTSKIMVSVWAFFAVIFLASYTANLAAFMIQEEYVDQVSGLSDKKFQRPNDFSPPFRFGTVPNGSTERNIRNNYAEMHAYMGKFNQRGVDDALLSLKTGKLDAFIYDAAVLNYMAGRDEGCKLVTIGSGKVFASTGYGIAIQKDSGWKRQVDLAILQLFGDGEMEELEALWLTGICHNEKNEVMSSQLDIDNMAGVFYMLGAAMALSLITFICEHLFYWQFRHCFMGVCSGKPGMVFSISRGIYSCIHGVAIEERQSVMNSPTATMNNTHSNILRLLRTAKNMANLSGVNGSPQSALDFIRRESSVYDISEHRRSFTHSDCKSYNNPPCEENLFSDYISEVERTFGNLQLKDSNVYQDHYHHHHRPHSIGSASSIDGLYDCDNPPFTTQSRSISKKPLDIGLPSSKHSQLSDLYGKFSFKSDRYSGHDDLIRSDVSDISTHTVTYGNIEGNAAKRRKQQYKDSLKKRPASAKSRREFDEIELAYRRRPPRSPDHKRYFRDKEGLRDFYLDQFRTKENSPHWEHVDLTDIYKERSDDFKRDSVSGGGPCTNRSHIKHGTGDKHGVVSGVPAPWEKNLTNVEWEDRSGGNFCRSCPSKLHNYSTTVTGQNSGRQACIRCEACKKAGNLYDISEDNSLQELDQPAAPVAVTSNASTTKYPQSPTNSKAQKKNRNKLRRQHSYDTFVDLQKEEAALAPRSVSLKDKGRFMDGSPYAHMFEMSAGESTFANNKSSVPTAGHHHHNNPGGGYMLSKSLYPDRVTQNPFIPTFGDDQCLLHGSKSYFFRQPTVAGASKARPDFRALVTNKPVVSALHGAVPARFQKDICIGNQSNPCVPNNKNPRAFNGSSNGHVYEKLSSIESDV
# ASSAY INFO: Ca2+ fluorescence (fluo-8) assay in HEK cells expressing GluN2B
# Type: cell-based
# ASSAY SETUP: inhibition of Ca2+ response, HEK cells, glutamate and glycine 3 μM each; read-out: GluN2B IC50 (nM) ± SEM (n)
One number for each entry, in nM.

MOLECULE: N[C@@H](Cc1ccccn1)c1ccccc1 [ARL-15896, reference compound]
SYSTEM NAME: human GluN2B (Homo sapiens, UniProt Q05586+Q13224)
PROPERTY: IC50
QUANTITATIVE READOUT: 510000

Please give IC50 for each item listed below.
1. O=C(O)[C@@H]1[C@H](C(=O)O)NCCN1C(=O)c1ccc2c(ccc3ccccc32)c1 [PPDA, reference compound]
2. O=C(O)c1cc(=O)c2c(Cl)cc(Cl)cc2[nH]1 [5,7-DCKA, reference compound]

[8490, 8400]

###

# SYSTEM NAME: human GluN2D (Homo sapiens, UniProt O15399+Q05586)
# Construct: expressed in transfected cells; host or cells: HEK cells
# Sequence (O15399 28-1336, other chains not shown): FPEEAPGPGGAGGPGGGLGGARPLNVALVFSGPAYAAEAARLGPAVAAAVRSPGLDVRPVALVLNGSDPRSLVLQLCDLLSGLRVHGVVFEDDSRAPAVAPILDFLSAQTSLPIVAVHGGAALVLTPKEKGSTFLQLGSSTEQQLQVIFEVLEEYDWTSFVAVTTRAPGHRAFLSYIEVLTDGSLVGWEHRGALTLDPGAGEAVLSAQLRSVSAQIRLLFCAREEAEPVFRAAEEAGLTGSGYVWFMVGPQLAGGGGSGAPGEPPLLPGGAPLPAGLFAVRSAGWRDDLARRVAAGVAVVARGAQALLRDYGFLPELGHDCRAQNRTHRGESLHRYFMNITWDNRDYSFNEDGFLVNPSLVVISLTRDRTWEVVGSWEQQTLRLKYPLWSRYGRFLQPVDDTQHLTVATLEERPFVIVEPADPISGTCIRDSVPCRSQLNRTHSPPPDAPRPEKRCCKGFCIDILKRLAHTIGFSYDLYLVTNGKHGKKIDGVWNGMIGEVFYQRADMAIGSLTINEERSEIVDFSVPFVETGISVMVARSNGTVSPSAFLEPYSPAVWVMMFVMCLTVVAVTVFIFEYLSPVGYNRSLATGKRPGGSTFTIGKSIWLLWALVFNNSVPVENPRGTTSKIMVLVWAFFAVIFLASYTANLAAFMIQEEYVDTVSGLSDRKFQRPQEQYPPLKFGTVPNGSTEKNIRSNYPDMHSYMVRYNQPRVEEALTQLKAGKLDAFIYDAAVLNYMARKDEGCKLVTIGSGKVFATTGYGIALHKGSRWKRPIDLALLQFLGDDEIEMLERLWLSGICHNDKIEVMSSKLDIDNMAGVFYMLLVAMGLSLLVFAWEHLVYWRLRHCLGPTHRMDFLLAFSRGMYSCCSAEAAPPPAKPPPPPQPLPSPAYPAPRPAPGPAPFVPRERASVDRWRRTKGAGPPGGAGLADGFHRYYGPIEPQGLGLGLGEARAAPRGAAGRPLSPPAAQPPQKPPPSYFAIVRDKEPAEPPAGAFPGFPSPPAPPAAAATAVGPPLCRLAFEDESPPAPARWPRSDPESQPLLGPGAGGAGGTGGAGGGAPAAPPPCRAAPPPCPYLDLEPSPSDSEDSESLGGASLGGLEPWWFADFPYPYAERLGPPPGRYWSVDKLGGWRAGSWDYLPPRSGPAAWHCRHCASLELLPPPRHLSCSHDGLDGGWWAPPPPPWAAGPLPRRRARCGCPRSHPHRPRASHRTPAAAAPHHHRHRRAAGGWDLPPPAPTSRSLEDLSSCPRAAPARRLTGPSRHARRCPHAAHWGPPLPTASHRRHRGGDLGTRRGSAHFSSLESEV
# ASSAY INFO: Ca2+ fluorescence (fluo-8) assay in HEK cells expressing GluN2D
# Format: cell-based
# ASSAY SETUP: HEK293; 10 μM compound; negative = increase in Ca2+ response; read-out: GluN2D % Inhib. @ 10 μM ± SEM (n)
Decision: inhibition at 10 µM >= -10% yields True, all other cases yield False.

Examples from the recorded data:
MOLECULE: Cc1ncc(CNC(=O)c2cnc(CNS(=O)(=O)c3ccc(F)c(Cl)c3)c(C)n2)s1
ANSWER LABEL: True

MOLECULE: Cc1ncc(CNC(=O)c2cnc(CNS(=O)(=O)c3ccc(Cl)c(F)c3)c(C)n2)s1
ANSWER LABEL: True

Exam item: decide whether the reported inhibition at 10 µM for Cc1ncc(CNC(=O)c2ccc(CNS(=O)(=O)c3ccc(F)c(F)c3)cn2)s1 is at least -10%.
False

Check the entry Cc1ncc(CNC(=O)c2ccc(CNS(=O)(=O)c3ccc(F)c(Cl)c3)cn2)s1 : does inhibition at 10 µM equal or exceed -10%?
True

API: above_or_equal(metric=inhibition at 10 µM, cutoff=-10%) for item Cc1ncc(CNC(=O)c2ccc(CNS(=O)(=O)c3ccc(F)c(Cl)c3)cc2)s1
True

###

# SYSTEM NAME: human GluN2B (Homo sapiens, UniProt Q05586+Q13224)
# Construct: expressed in transfected cells; host or cells: HEK cells
# ASSAY INFO: Ca2+ fluorescence (fluo-8) assay in HEK cells expressing GluN2B
# Type: cell-based
# ASSAY SETUP: HEK293; 10 μM compound; negative = increase in Ca2+ response; read-out: GluN2B % Inhib. @ 10 μM ± SEM (n)
PROPERTY: inhibition at 10 µM (%)
Answers are plain numbers, in %.

// solved cases for inhibition at 10 µM follow
MOLECULE: Cc1ncc(CNC(=O)c2ccc(CNS(=O)(=O)c3ccc(F)c(F)c3)cn2)s1
SYSTEM NAME: human GluN2B (Homo sapiens, UniProt Q05586+Q13224)
UNIT ABBREV: %
inhibition at 10 µM: -1
//
MOLECULE: Cc1ncc(CNC(=O)c2cnc(CNS(=O)(=O)c3ccc(F)c(Cl)c3)c(C)n2)s1
SYSTEM NAME: human GluN2B (Homo sapiens, UniProt Q05586+Q13224)
UNIT ABBREV: %
inhibition at 10 µM: -8
//
MOLECULE: Cc1ncc(CNC(=O)c2cnc(CNS(=O)(=O)c3ccc(F)c(F)c3)cn2)s1
SYSTEM NAME: human GluN2B (Homo sapiens, UniProt Q05586+Q13224)
UNIT ABBREV: %
inhibition at 10 µM: -8
//
MOLECULE: Cc1ncc(CNC(=O)c2cnc(CNS(=O)(=O)c3ccc(Cl)c(F)c3)c(C)n2)s1
SYSTEM NAME: human GluN2B (Homo sapiens, UniProt Q05586+Q13224)
UNIT ABBREV: %
inhibition at 10 µM: -7
//
MOLECULE: Cc1ncc(CNC(=O)c2ccc(CNS(=O)(=O)c3ccc(F)c(Cl)c3)cc2)s1
SYSTEM NAME: human GluN2B (Homo sapiens, UniProt Q05586+Q13224)
UNIT ABBREV: %
inhibition at 10 µM: 4

# ---- query molecule ----
Kindly indicate its recorded inhibition at 10 µM. Item: Cc1ncc(CNC(=O)c2ccc(CNS(=O)(=O)c3ccc(F)c(Cl)c3)cn2)s1
1

###

# SYSTEM NAME: human GluN2A (Homo sapiens, UniProt Q05586+Q12879)
# Construct: host or cells: HEK293, tetracycline-induced
# Sequence (Q12879 23-1464, other chains not shown): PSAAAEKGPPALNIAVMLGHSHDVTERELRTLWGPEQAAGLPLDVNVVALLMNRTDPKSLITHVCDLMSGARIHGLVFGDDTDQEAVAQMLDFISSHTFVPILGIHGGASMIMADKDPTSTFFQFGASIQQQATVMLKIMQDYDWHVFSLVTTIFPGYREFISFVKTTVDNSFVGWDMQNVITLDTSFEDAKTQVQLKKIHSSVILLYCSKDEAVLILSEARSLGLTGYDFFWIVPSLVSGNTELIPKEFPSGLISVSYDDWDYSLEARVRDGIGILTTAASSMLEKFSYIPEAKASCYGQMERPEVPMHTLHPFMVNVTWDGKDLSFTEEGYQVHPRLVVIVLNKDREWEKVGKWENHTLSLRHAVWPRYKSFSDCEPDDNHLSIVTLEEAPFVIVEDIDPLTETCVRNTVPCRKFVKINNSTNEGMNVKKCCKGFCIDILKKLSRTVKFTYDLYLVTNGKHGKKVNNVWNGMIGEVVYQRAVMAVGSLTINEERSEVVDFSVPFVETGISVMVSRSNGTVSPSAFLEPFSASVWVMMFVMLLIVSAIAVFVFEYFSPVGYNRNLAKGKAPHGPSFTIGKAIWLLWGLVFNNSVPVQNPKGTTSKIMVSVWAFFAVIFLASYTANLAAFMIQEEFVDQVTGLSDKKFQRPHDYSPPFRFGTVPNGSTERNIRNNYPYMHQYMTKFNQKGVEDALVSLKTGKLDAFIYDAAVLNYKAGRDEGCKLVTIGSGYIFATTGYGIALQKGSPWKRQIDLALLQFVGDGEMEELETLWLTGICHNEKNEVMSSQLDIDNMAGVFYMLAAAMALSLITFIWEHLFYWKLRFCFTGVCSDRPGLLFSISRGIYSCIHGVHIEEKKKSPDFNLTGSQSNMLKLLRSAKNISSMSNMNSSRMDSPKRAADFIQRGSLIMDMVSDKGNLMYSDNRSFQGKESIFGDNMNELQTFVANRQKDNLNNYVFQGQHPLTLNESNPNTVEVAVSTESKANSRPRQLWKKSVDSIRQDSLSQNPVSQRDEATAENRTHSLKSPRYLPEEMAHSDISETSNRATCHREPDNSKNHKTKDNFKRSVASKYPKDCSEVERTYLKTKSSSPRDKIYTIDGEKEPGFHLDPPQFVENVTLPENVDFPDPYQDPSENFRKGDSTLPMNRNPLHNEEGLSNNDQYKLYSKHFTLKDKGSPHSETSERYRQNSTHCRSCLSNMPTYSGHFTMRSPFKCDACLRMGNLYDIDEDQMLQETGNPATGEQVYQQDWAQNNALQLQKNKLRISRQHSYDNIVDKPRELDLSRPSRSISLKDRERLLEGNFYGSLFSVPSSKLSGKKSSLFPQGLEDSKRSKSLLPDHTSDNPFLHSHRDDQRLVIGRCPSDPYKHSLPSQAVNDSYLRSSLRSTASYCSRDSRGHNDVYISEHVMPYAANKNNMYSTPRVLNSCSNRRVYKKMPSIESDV
# ASSAY INFO: Ca2+ fluorescence (fluo-8) assay in HEK cells expressing GluN2A
# Assay type: cell-based
# ASSAY SETUP: inhibition of Ca2+ response, HEK cells, glutamate and glycine 3 μM each; read-out: GluN2A IC50 (nM) ± SEM (n)
# Protocol: HEK293 cells expressing the human GRIN1/GRIN2A genes (Chantest Catalog #: CT6120) were grown as an adherent monolayer at 37°C, 5% CO2 in DMEM/Ham’s F12 + 10% tetracycline-screened FBS (Hyclone SH3007.03T) and 500 μg/ml G418. […] Cells collected from the flask were washed twice in Ca^2+/Mg^2+-free Hanks Balanced Salt Solution + 20 mM HEPES (HBSS), and counted and assessed for viability with trypan blue. […]
Give IC50 for every item shown.
Answers are plain numbers, in nM.

COMPOUND: O=C(O)[C@@H]1[C@H](C(=O)O)NCCN1C(=O)c1ccc2c(ccc3ccccc32)c1 [PPDA, reference compound]
SYSTEM NAME: human GluN2A (Homo sapiens, UniProt Q05586+Q12879)
UNIT ABBREV: nM
IC50: 4860

Now consider the entry below.
Consider the compound O=C(O)c1cc(=O)c2c(Cl)cc(Cl)cc2[nH]1 [5,7-DCKA, reference compound] and give its recorded IC50.
1170

###

# SYSTEM NAME: human GluN2D (Homo sapiens, UniProt O15399+Q05586)
# Construct: expressed in transfected cells; host or cells: HEK cells
# ASSAY INFO: Ca2+ fluorescence (fluo-8) assay in HEK cells expressing GluN2D
# Assay type: cell-based
PROPERTY: pIC50
Numbers only, as −log10 of the molar value.

Supply measured pIC50 of C[C@]12N[C@H](Cc3ccccc31)c1ccccc12 [MK-801, reference compound] in your reply.
7.06

###

# ASSAY INFO: Kinetic solubility
# Type: physicochemical
# ASSAY SETUP: phosphate buffered saline, aqueous buffer, kinetic from dmso stock; in solution by HPLC after dissolution in DMSO and addition to saline
Kindly state solubility at 90 min for each of the entries shown.
One number for each entry, in µM.

Here is how some molecules turned out for solubility at 90 min.
MOLECULE: Cc1ncc(CNC(=O)c2cnc(CNS(=O)(=O)c3ccc(F)c(F)c3)c(C)n2)s1
QUANTITATIVE READOUT: 68
--
MOLECULE: Cc1ncc(CNC(=O)c2cnc(CNS(=O)(=O)c3ccc(F)c(Cl)c3)cn2)s1
QUANTITATIVE READOUT: 16

Here is another molecule to look at.
Annotate the molecule O=C(NNC(=O)c1ccc(CNS(=O)(=O)c2ccc(F)c(Cl)c2)cc1)c1ccccc1 [TCN-201, reference compound] with its measured solubility at 90 min.
8

###

# SYSTEM NAME: human GluN2D (Homo sapiens, UniProt O15399+Q05586)
# Construct: expressed in transfected cells; host or cells: HEK cells
# ASSAY INFO: Ca2+ fluorescence (fluo-8) assay in HEK cells expressing GluN2D
# Assay type: cell-based
# ASSAY SETUP: inhibition of Ca2+ response, HEK cells, glutamate and glycine 3 μM each; read-out: GluN2D IC50 (nM) ± SEM (n)
PROPERTY: IC50 (nM)
Answers are plain numbers, in nM.

Quick one: give me IC50 for each item below, same order please.
1. N[C@@H](Cc1ccccn1)c1ccccc1 [ARL-15896, reference compound]
2. O=C(O)[C@@H]1[C@H](C(=O)O)NCCN1C(=O)c1ccc2c(ccc3ccccc32)c1 [PPDA, reference compound]

[25000, 34800]

###

# System: MDR1
# ASSAY INFO: in vitro
# Format: in vitro ADME
# ASSAY SETUP: dog, MDCK-MDR1; compound added on basal side (B-A); read-out: MDCK B-A permeability
Would you mind telling me the reported Papp B→A of each entry?
Give bare numbers, in ×10⁻⁶ cm/s.

For orientation, consider the following solved cases.
MOLECULE: O=C(NNC(=O)c1ccc(CNS(=O)(=O)c2ccc(F)c(Cl)c2)cc1)c1ccccc1 [TCN-201, reference compound]
Papp B→A [×10⁻⁶ cm/s]: 58.9
--
MOLECULE: Cc1ncc(CNC(=O)c2cnc(CNS(=O)(=O)c3ccc(F)c(Cl)c3)cn2)s1 [MPX-004]
Papp B→A [×10⁻⁶ cm/s]: 66.1

In the following, a different molecule is considered.
Quickly give me recorded Papp B→A for Cc1ncc(CNC(=O)c2cnc(CNS(=O)(=O)c3ccc(F)c(F)c3)c(C)n2)s1 [MPX-007]
76.8
